This collection of values is drawn from patent US7998940B2.

Biological target: human vWF A1 domain (SEQ ID NO 5) (Homo sapiens, UniProt P04275, T1381A)
Sequence (P04275 with tags, fused parts or gaps T1381A): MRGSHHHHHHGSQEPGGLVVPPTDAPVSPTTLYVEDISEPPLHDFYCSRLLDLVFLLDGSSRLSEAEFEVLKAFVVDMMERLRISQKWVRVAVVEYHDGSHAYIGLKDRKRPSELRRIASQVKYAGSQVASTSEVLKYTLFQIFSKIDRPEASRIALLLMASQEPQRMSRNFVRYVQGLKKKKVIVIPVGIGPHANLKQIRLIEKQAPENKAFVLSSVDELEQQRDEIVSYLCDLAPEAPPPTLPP
Test: 3-point dot blot screen, human vWF A1 domain
Type: binding
Conditions: DNA SELEX 1 aptamers; 100 nM human vWF A1 domain; ratio of fraction bound with target to without
PROPERTY: Screen- Human/No Protein
API doc: respond with a numeric literal and nothing else, no unit.

Looking up AMX199.D8: DNA SELEX 1 aptamer clone (nucleic acid, DNA, backbone not given here, DNA SELEX 1 aptamer clone) DNA: CTACCTACGATCTGACTAGCAAGGGGATTGGCTCCGGGTCTGGCGTGCTTGGCATCTTCGGCTTACTCTCATGTAGTTCC , I found its Screen- Human/No Protein recorded as 1.89

Field Screen- Human/No Protein (entry AMX200.B8: DNA SELEX 1 aptamer clone (nucleic acid, DNA, backbone not given here, DNA SELEX 1 aptamer clone) DNA: CTACCTACGATCTGACTAGCGGAATGAGAATGTTGGTGGATTGCTCAGGTCTGCTGGCTGCTTACTCTCATGTAGTTCC ) reads 4.13

Entry under test: AMX199.A10: DNA SELEX 1 aptamer clone (nucleic acid, DNA, backbone not given here, DNA SELEX 1 aptamer clone) DNA: CTACCTACGATCTGACTAGCGGAACACTAGGTTGGTTAGGATTGGTGTGTTCCCGTTTTGCTTACTCTCATGTAGTTCC . Its Screen- Human/No Protein was 1.25

// recorded Screen- Human/No Protein for AMX202.B8: DNA SELEX 1 aptamer clone (nucleic acid, DNA, backbone not given here, DNA SELEX 1 aptamer clone) DNA: CTACCTACGATCTGACTAGCGGAATGAGTATGCTGATGGATTGCTCAGGTCTGCTGGCTGCTTACTCTCATGTAGTTCC : 1.66

AMX199.F6: DNA SELEX 1 aptamer clone (nucleic acid, DNA, backbone not given here, DNA SELEX 1 aptamer clone) DNA: CTACCTACGATCTGACTAGCGAAACACTAGGTTGGTTAGGATTGGTGTGTTCCCGCTCTGCTTACTCTCATGTAGTTCC yielded Screen- Human/No Protein of 1.37

Record AMX200.B9: DNA SELEX 1 aptamer clone (nucleic acid, DNA, backbone not given here, DNA SELEX 1 aptamer clone) DNA: CTACCTACGATCTGACTAGCGGAATGAGAATGCTGATGGATTGCTCAGGTCTGCTGACTGCTTACTCTCATGTAGTTCC . Reported Screen- Human/No Protein: 2.54

So for AMX200.A7: DNA SELEX 1 aptamer clone (nucleic acid, DNA, backbone not given here, DNA SELEX 1 aptamer clone) DNA: CTACCTACGATCTGACTAGCGGAATGAGAATGCTGATGGATTGTTCAGGTCTGCTGGCTGCTTACTCTCATGTAGTTCC , the logged Screen- Human/No Protein turned out to be 0.97

Screen- Human/No Protein measured on AMX199.H7: DNA SELEX 1 aptamer clone (nucleic acid, DNA, backbone not given here, DNA SELEX 1 aptamer clone) DNA: CTACCTACGATCTGACTAGCGAAACACTAGGTTGGTTAGGATTGGTGTGTTTCCGCTTTGCTTACTCTCATGTAGTTCC = 1.32

Briefly, Screen- Human/No Protein measured for AMX199.F7: DNA SELEX 1 aptamer clone (nucleic acid, DNA, backbone not given here, DNA SELEX 1 aptamer clone) DNA: CTACCTACGATCTGACTAGCGGAATGAGAGTGCTGGTGGATTGCTCAGGTCTGCTGGCTGCTTACTCTCATGTAGTTCC : 5.47

Sure, the documented Screen- Human/No Protein for AMX199.F11: DNA SELEX 1 aptamer clone (nucleic acid, DNA, backbone not given here, DNA SELEX 1 aptamer clone) DNA: CTACCTACGATCTGACTAGCGAAACACTAGGTTGGTTAGGATTGGTGTGTTTCTGCTCTGCTTACTCTCATGTAGTTCC is 1.44

Just so you know, measured Screen- Human/No Protein for AMX200.E10: DNA SELEX 1 aptamer clone (nucleic acid, DNA, backbone not given here, DNA SELEX 1 aptamer clone) DNA: CTACCTACGATCTGACTAGCAAGGGGATTGGCTCCGGGTCTGGCGTGCTCGGCACCTTTGGCTTACTCTCATGTAGTTCC came out at 1.69

Screen- Human/No Protein reported for this molecule AMX200.B1: DNA SELEX 1 aptamer clone (nucleic acid, DNA, backbone not given here, DNA SELEX 1 aptamer clone) DNA: CTACCTACGATCTGACTAGCGGAATGAGAATGCTGATGGATTGCCCAGGTCTGCTGGCTGCTTACTCTCATGTAGTTCC : 4.01

Lab note: measured Screen- Human/No Protein of AMX199.B6: DNA SELEX 1 aptamer clone (nucleic acid, DNA, backbone not given here, DNA SELEX 1 aptamer clone) DNA: CTACCTACGATCTGACTAGCAAGGGGATTGGCTCCGGGTCTGGCGTGCTTGGTACCTCCGGCTTACTCTCATGTAGTTCC was 2.01
